TEST: Screening of protected amino acid derivatives as solubilizers and inhibitor of crystallization for JP4-039
Assay type: physicochemical
CONDITIONS: molar ratio 40
READOUT_TYPE: Solubility status of JP4-039 with amino acid derivative

# get_value(readout='Solubility status of JP4-039 with amino acid derivative', item= CC(C)(C)OC(=O)N[C@@H](CCCCNC(=O)OCc1ccccc1)C(=O)O )
I

Please give the measured Solubility status of JP4-039 with amino acid derivative for this compound: O=C(O)CCNC(=O)OCc1ccccc1
I

Which value of Solubility status of JP4-039 with amino acid derivative has been reported for CC(C)(C)OC(=O)NCCCC[C@H](NC(=O)OCc1ccccc1)C(=O)O in the records?
S

###

TEST: Screening of protected amino acid derivatives as solubilizers and inhibitor of crystallization for JP4-039
Type: physicochemical
CONDITIONS: molar ratio 40
READOUT_TYPE: Solubility status of JP4-039 with amino acid derivative

Fill blank: measured Solubility status of JP4-039 with amino acid derivative of the compound CC(=O)N[C@@H](CCCCNC(=O)OCc1ccccc1)C(=O)O is ____.
I

Value lookup for Solubility status of JP4-039 with amino acid derivative; key = CC(=O)NCCCC[C@H](NC(=O)OCc1ccccc1)C(=O)O
I

# get_value(readout='Solubility status of JP4-039 with amino acid derivative', item= O=C(NCCCC[C@H](NC(=O)OCc1ccccc1)C(=O)O)OCc1ccccc1 )
S

Quick one: Solubility status of JP4-039 with amino acid derivative of CC(C)(C)OC(=O)NCCCC[C@H](NC(=O)OCC1c2ccccc2-c2ccccc21)C(=O)O ?
S

Source: patent US20190038556A1
